This collection of values is drawn from ChEMBL document CHEMBL4364278.

Here's what we have: pIC50 numbers for Hepatocyte growth factor receptor (Homo sapiens, UniProt P08581).
Lab note: report pIC50 as minus log10 of the concentration in molar units, number only.

- Nc1nccc(Oc2ccc(Nc3nccc4ccn(-c5ccc(F)cc5)c(=O)c34)cc2F)c1Cl: 7.16

Please examine the following record next.
# pIC50 (compound: CCOc1ccn(-c2ccc(F)cc2)c(=O)c1C(=O)Nc1ccc(Oc2ccnc(N)c2Cl)c(F)c1 ) is 7.33

* * *

- measurement.description: AUC (0 to infinity) in rat at 2.5 mg/kg, iv
- Type: ADME, organism-based
- Parameters: dose 2.5 mg/kg, route intravenous, time infinity
- test.parameters: in vivo
assay.endpoint: AUC(0-inf) (ng·h/mL)
Field format: number, assumed ng·h/mL, no unit text.

* Nc1nccc(Oc2ccc(Nc3nccc4ccn(-c5ccc(F)cc5)c(=O)c34)cc2F)c1Cl | 3100

Please turn your attention to the following entry.
Entry Cc1cc2ccnc(Nc3ccc(Oc4ccnc(N)c4I)c(F)c3)c2c(=O)n1-c1ccc(F)cc1 — recorded AUC(0-inf) = 13100
